Reference source for all entries: ChEMBL document CHEMBL2046382

METHOD NOTES: Antioxidant activity assessed as superoxide radical scavenging activity after 48 hrs
Assay type: functional
Calls of active or inactive are those of the source. The calls are words filed in the database; no cut-off is given here.
REPORTED PROPERTY: Activity

>>> reported_measurement("COC(=O)Cc1cc(O)cc2oc(-c3ccc(OC)c(O)c3)cc(=O)c12")
"inactive"
>>> reported_measurement("COC(=O)Cc1cc(O)cc2oc(-c3ccc(OC)cc3)cc(=O)c12")
"inactive"
>>> reported_measurement("COC(=O)Cc1cc(O)cc2oc(-c3ccc([N+](=O)[O-])cc3)cc(=O)c12")
"inactive"
>>> reported_measurement("COC(=O)Cc1cc(O)cc2oc(-c3cc(OC)cc(OC)c3)cc(=O)c12")
"inactive"

###

Tested on: Staphylococcus aureus
METHOD NOTES: Antibacterial activity against Staphylococcus aureus MTCC 2940 by modified microtiter broth dilution method
Format: functional
// values below are reported MIC
Write the number in µg/mL without appending the unit.

Use these answered entries as a reference point.
>>> reported_measurement("COC(=O)Cc1cc(O)cc2oc(-c3ccc(C)cc3)cc(=O)c12")
18
>>> reported_measurement("O=c1cc(-c2ccc(O)c(O)c2)oc2cc(O)cc(O)c12")
18
>>> reported_measurement("CCCCCc1cc(=O)c2c(CC(=O)OC)cc(O)cc2o1")
9

Input line: Sample `COC(=O)Cc1cc(O)cc2oc(-c3ccc(OC)c(O)c3)cc(=O)c12` — what was its MIC?
Output line: 37

###

// values below are reported MIC
Tested on: Escherichia coli
METHOD NOTES: Antibacterial activity against Escherichia coli MTCC 739 by modified microtiter broth dilution method
Assay type: functional
Write the number in µg/mL without appending the unit.

Input line: Notebook: pull reported MIC for Escherichia coli, entry `COC(=O)Cc1cc(O)cc2oc(-c3ccc(OC)cc3)cc(=O)c12`
Output line: 18

###

System: Escherichia coli
METHOD NOTES: Antibacterial activity against Escherichia coli MTCC 739 by modified microtiter broth dilution method
Type: functional
// values below are reported MIC
Number first, unit second.

Use these answered entries as a reference point.
>>> reported_measurement("COC(=O)Cc1cc(O)cc2oc(-c3cc(OC)cc(OC)c3)cc(=O)c12")
"4 µg/mL"
>>> reported_measurement("COC(=O)Cc1cc(O)cc2oc(-c3cc(OC)c(OC)c(OC)c3)cc(=O)c12")
"18 µg/mL"
>>> reported_measurement("CCOC(=O)Cc1cc(O)cc2oc(-c3ccc(O)cc3)cc(=O)c12")
"9 µg/mL"
>>> reported_measurement("COC(=O)Cc1cc(O)cc2oc(-c3ccc(O)c(OC)c3)cc(=O)c12")
"4 µg/mL"

API: the following record is the query input.
Input line: Sample `COC(=O)Cc1cc(O)cc2oc(-c3ccc(OC)c(O)c3)cc(=O)c12` — what was its MIC?
Output line: 18 µg/mL

###

// values below are reported MIC
Tested on: Bacillus subtilis
METHOD NOTES: Antibacterial activity against Bacillus subtilis MTCC 121 by modified microtiter broth dilution method
Assay type: functional
Write the number in mg/L without appending the unit.

>>> reported_measurement("CCOC(=O)Cc1cc(O)cc2oc(-c3ccc(O)cc3)cc(=O)c12")
9

Input line: Sample `COC(=O)Cc1cc(O)cc2oc(-c3ccc(C)cc3)cc(=O)c12` — what was its MIC?
Output line: 4

Input line: Queued: `COC(=O)Cc1cc(O)cc2oc(-c3ccc(O)c(OC)c3)cc(=O)c12`
Output line: 4

Input line: Queued: `COC(=O)Cc1cc(O)cc2oc(-c3ccc(OC)c(OC)c3)cc(=O)c12`
Output line: 9

Input line: Queued: `COC(=O)Cc1cc(O)cc2oc(-c3ccc(N)cc3)cc(=O)c12`
Output line: 9

Input line: Queued: `COC(=O)Cc1cc(O)cc2oc(-c3ccc(OC)cc3)cc(=O)c12`
Output line: 9

Input line: Queued: `COC(=O)Cc1cc(O)cc2oc(-c3cc(OC)c(OC)c(OC)c3)cc(=O)c12`
Output line: 9

Input line: Queued: `COC(=O)Cc1cc(O)cc2oc(-c3ccc(Cl)c(F)c3)cc(=O)c12`
Output line: 75

Input line: Queued: `COC(=O)Cc1cc(O)cc2oc(-c3ccc([N+](=O)[O-])cc3)cc(=O)c12`
Output line: 18

Input line: Queued: `COC(=O)Cc1cc(O)cc2oc(-c3cc(OC)cc(OC)c3)cc(=O)c12`
Output line: 18

###

Test system: Micrococcus luteus
METHOD NOTES: Antibacterial activity against Micrococcus luteus MTCC 2470 by modified microtiter broth dilution method
Assay type: functional
REPORTED PROPERTY: MIC
Number first, unit second.

Use these answered entries as a reference point.
>>> reported_measurement("COC(=O)Cc1cc(O)cc2oc(-c3ccc(C)cc3)cc(=O)c12")
"18 mg/L"
>>> reported_measurement("CCOC(=O)Cc1cc(O)cc2oc(-c3ccc(O)cc3)cc(=O)c12")
"9 mg/L"

Input line: Sample `O=c1cc(-c2ccc(O)c(O)c2)oc2cc(O)cc(O)c12` — what was its MIC?
Output line: 18 mg/L

Input line: Queued: `COC(=O)Cc1cc(O)cc2oc(-c3ccc(O)c(OC)c3)cc(=O)c12`
Output line: 18 mg/L

Input line: Queued: `COC(=O)Cc1cc(O)cc2oc(-c3cc(OC)c(OC)c(OC)c3)cc(=O)c12`
Output line: 4 mg/L

Input line: Queued: `COC(=O)Cc1cc(O)cc2oc(-c3ccc([N+](=O)[O-])cc3)cc(=O)c12`
Output line: 18 mg/L

Input line: Queued: `COC(=O)Cc1cc(O)cc2oc(-c3cc(O)ccc3O)cc(=O)c12`
Output line: 37 mg/L

Input line: Queued: `COC(=O)Cc1cc(O)cc2oc(-c3ccc(Cl)c(F)c3)cc(=O)c12`
Output line: 18 mg/L

Input line: Queued: `COC(=O)Cc1cc(O)cc2oc(-c3cc(OC)cc(OC)c3)cc(=O)c12`
Output line: 9 mg/L

###

// values below are reported MIC
Test system: Staphylococcus aureus
METHOD NOTES: Antibacterial activity against Staphylococcus aureus MTCC 2940 by modified microtiter broth dilution method
Assay type: functional
Write the number in µg/mL without appending the unit.

Use these answered entries as a reference point.
>>> reported_measurement("COC(=O)Cc1cc(O)cc2oc(-c3cc(OC)cc(OC)c3)cc(=O)c12")
18
>>> reported_measurement("COC(=O)Cc1cc(O)cc2oc(-c3ccc([N+](=O)[O-])cc3)cc(=O)c12")
18
>>> reported_measurement("COC(=O)Cc1cc(O)cc2oc(-c3cc(OC)c(OC)c(OC)c3)cc(=O)c12")
18
>>> reported_measurement("COC(=O)Cc1cc(O)cc2oc(-c3ccccc3)cc(=O)c12")
9
>>> reported_measurement("COC(=O)Cc1cc(O)cc2oc(-c3ccc(O)c(OC)c3)cc(=O)c12")
18

Input line: Sample `COC(=O)Cc1cc(O)cc2oc(-c3cc(O)c(O)c(O)c3)cc(=O)c12` — what was its MIC?
Output line: 9

Input line: Queued: `COC(=O)Cc1cc(O)cc2oc(-c3ccc(O)c(O)c3)cc(=O)c12`
Output line: 9

Input line: Queued: `COC(=O)Cc1cc(O)cc2oc(-c3ccc(Cl)c(F)c3)cc(=O)c12`
Output line: 18

Input line: Queued: `COC(=O)Cc1cc(O)cc2oc(-c3ccc(Cl)cc3)cc(=O)c12`
Output line: 75

###

// values below are reported MIC
System: Escherichia coli
METHOD NOTES: Antibacterial activity against Escherichia coli MTCC 739 by modified microtiter broth dilution method
Format: functional
Write the number in µg/mL without appending the unit.

Use these answered entries as a reference point.
>>> reported_measurement("COC(=O)Cc1cc(O)cc2oc(-c3ccc(C)cc3)cc(=O)c12")
4
>>> reported_measurement("O=c1cc(-c2ccc(O)c(O)c2)oc2cc(O)cc(O)c12 [LUTEOLIN]")
4
>>> reported_measurement("COC(=O)Cc1cc(O)cc2oc(-c3cc(O)ccc3O)cc(=O)c12")
18

Input line: Sample `COC(=O)Cc1cc(O)cc2oc(-c3ccc([N+](=O)[O-])cc3)cc(=O)c12` — what was its MIC?
Output line: 37
